Conditions: in isopentanol, 283.15 K
QUANTITY_KIND: solubility (mole fraction)
API doc: respond with a numeric literal and nothing else, no unit.

# molecule `c1ccc(-n2c3ccccc3c3ccccc32)cc1` ; its solubility (mole fraction) = 0.00614

###

Settings: in dimethyl carbonate, 323.15 K
QUANTITY_KIND: solubility (mole fraction)

# compound `c1ccc(-n2c3ccccc3c3ccccc32)cc1` ; its solubility (mole fraction) = 0.294

###

Conditions: in methyl acetate, 308.15 K
QUANTITY_KIND: solubility (mole fraction)
API doc: respond with a numeric literal and nothing else, no unit.

# compound `c1ccc(-n2c3ccccc3c3ccccc32)cc1` ; its solubility (mole fraction) = 0.199
